biological target: MS2 coat protein, dlFG mutant (Escherichia phage MS2, UniProt P03612, del68-81insG); assay: 4 mM Mg2+; theophylline 2 mM; RNA-MaP array; 100 mM Tris-HCl pH 7.5, 80 mM KCl, 4 mM MgCl2, 0.1 mg/mL BSA, 1 mM DTT, 0.01 mg/mL yeast tRNA, 0.01% Tween-20; protein 1.5 nM to 3 uM; 37 C (Table S3); conditions: chain copies: 2; label: tethered by stalled RNA polymerase
recorded_metric: Kd
The reply must contain the numeric value and, after it, the unit.

Summary for this binder, Eterna 7618605 (Same State - Theophylline A) (ssRNA) RNA: UGUAACAUGAGGAUCACCCAUGUGAGUGAUACCAGAUUAGUAUUAGUCCCUUGGCAGCACAUUGGGCGAGUGUAUAGUCUAUGCG : Kd is 109 nM

Data provenance is paper PMC9170038.
